Each recorded value in this set is attributed to patent US6355658B1.

Target: human leukocyte elastase (Homo sapiens, UniProt P08246)
Sequence (P08246 30-247 limits assumed): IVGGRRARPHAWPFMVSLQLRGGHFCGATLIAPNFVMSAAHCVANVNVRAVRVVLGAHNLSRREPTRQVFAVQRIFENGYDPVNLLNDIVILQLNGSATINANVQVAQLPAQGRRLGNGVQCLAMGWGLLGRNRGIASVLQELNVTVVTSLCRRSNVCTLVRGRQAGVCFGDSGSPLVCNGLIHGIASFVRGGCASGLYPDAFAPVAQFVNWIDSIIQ
Assay: Inactivation kinetics of human leukocyte elastase (chromogenic substrate MeOSuc-Ala2-Pro-Val-pNA)
Type: biochemical
Details: TABLE 3, no chloromethyl in position 6; 25° C., pH 8.0; inactivation phase of transient inactivation; read-out: Ki/KI or kobs/[I], LHE
Protocol: The inactivating or inhibitory properties of the coumarin derivatives were tested with respect to a certain number of enzymes: human leukocyte elastase, bovine α-chymotrypsin, human thrombin and bovine trypsin. […]
true means recorded kinact/KI is 40000 M⁻¹ s⁻¹ or above; false means it is below 40000 M⁻¹ s⁻¹.

# input Determine whether measured kinact/KI meets or exceeds 40000 M⁻¹ s⁻¹ for CC(C)C(=O)OCc1ccc2oc(=O)c(C(=O)Oc3cncc(Cl)c3)cc2c1 [Id9]
# output true

# input Determine whether measured kinact/KI meets or exceeds 40000 M⁻¹ s⁻¹ for O=C(Oc1cncc(Cl)c1)c1cc2ccccc2oc1=O [Ia3]
# output false

# input Determine whether measured kinact/KI meets or exceeds 40000 M⁻¹ s⁻¹ for CC(C)(C)C(=O)OCc1ccc2oc(=O)c(C(=O)Oc3cncc(Cl)c3)cc2c1 [Id8]
# output true

# input Determine whether measured kinact/KI meets or exceeds 40000 M⁻¹ s⁻¹ for CC(=O)OCc1ccc2oc(=O)c(C(=O)Oc3cncc(Cl)c3)cc2c1 [Id3]
# output true

# input Determine whether measured kinact/KI meets or exceeds 40000 M⁻¹ s⁻¹ for Cc1ccc2oc(=O)c(C(=O)Oc3cncc(Cl)c3)cc2c1 [Ib2]
# output false

# input Determine whether measured kinact/KI meets or exceeds 40000 M⁻¹ s⁻¹ for O=C(Oc1cncc(Cl)c1)c1cc2cc(Br)ccc2oc1=O [Ig1]
# output true

# input Determine whether measured kinact/KI meets or exceeds 40000 M⁻¹ s⁻¹ for Cl.NCc1ccc2oc(=O)c(C(=O)Oc3cncc(Cl)c3)cc2c1 [If3, hydrochloride]
# output false

# input Determine whether measured kinact/KI meets or exceeds 40000 M⁻¹ s⁻¹ for CCC(=O)OCc1ccc2oc(=O)c(C(=O)Oc3cncc(Cl)c3)cc2c1 [Id6]
# output true

# input Determine whether measured kinact/KI meets or exceeds 40000 M⁻¹ s⁻¹ for CCCC(=O)OCc1ccc2oc(=O)c(C(=O)Oc3cncc(Cl)c3)cc2c1 [Id10]
# output true

----------
Biological target: human leukocyte elastase (Homo sapiens)
Sequence (P08246 30-247 limits assumed): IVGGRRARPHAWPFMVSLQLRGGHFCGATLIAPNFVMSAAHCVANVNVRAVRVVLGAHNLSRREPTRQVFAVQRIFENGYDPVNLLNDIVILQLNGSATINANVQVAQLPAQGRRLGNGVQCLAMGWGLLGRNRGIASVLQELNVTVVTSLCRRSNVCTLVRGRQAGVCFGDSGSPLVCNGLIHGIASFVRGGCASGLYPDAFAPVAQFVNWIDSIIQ
Assay: Inactivation kinetics of human leukocyte elastase (chromogenic substrate MeOSuc-Ala2-Pro-Val-pNA)
Format: biochemical
Conditions: TABLE 3; 25° C., pH 8.0; inactivation phase
Readout: Ki/KI or kobs/[I], LHE

# input Please give the documented Ki/KI or kobs/[I], LHE of CCCC(=O)OCc1ccc2oc(=O)c(C(=O)Oc3cncc(Cl)c3)cc2c1 [Id10]
# output 67600 M⁻¹ s⁻¹

# input Please give the documented Ki/KI or kobs/[I], LHE of CC(=O)OCc1ccc2oc(=O)c(C(=O)Oc3cncc(Cl)c3)cc2c1 [Id3]
# output 107000 M⁻¹ s⁻¹

# input Please give the documented Ki/KI or kobs/[I], LHE of Cc1ccc2oc(=O)c(C(=O)Oc3cncc(Cl)c3)cc2c1 [Ib2]
# output 32500 M⁻¹ s⁻¹

# input Please give the documented Ki/KI or kobs/[I], LHE of CC(C)C(=O)OCc1ccc2oc(=O)c(C(=O)Oc3cncc(Cl)c3)cc2c1 [Id9]
# output 45000 M⁻¹ s⁻¹

# input Please give the documented Ki/KI or kobs/[I], LHE of Cl.NCc1ccc2oc(=O)c(C(=O)Oc3cncc(Cl)c3)cc2c1 [If3]
# output 9100 M⁻¹ s⁻¹

# input Please give the documented Ki/KI or kobs/[I], LHE of CCC(=O)OCc1ccc2oc(=O)c(C(=O)Oc3cncc(Cl)c3)cc2c1 [Id6]
# output 62000 M⁻¹ s⁻¹

----------
biological target: human thrombin (Homo sapiens); construct: human thrombin; test: Inactivation kinetics of human thrombin (chromogenic substrate H-D-Phe-Pip-Arg-pNA); assay type: biochemical; conditions: TABLE 1; 25° C., pH 7.5; inactivation phase; N.I. = non-inactivator
Readout: Ki/KI or kobs/[I], Thrombin

O=C(Oc1ccccn1)c1cc2cc(CCl)ccc2oc1=O ~240 M⁻¹ s⁻¹
O=C(Oc1ccc(Cl)cn1)c1cc2cc(CCl)ccc2oc1=O N.I.
Cc1cccc(OC(=O)c2cc3cc(CCl)ccc3oc2=O)n1 N.I.

----------
What melting point was measured for each of the following?

# input Please give the documented melting point of "Cc1cncc(OC(=O)c2cc3cc(CCl)ccc3oc2=O)c1"
# output 211 °C (dec.)

# input Please give the documented melting point of "O=C(Oc1cc([N+](=O)[O-])ccc1[N+](=O)[O-])c1cc2cc(CCl)ccc2oc1=O"
# output 153 to 157 °C

# input Please give the documented melting point of "O=C(Oc1ccc2ncccc2c1)c1cc2cc(CCl)ccc2oc1=O"
# output 205 to 208 °C

# input Please give the documented melting point of "O=C(Oc1cc(F)ccc1[N+](=O)[O-])c1cc2cc(CCl)ccc2oc1=O"
# output 205 to 208 °C

# input Please give the documented melting point of "Cc1ccc(OC(=O)c2cc3cc(CCl)ccc3oc2=O)c([N+](=O)[O-])n1"
# output 203 to 208 °C

# input Please give the documented melting point of "COc1ccc(NC(=O)c2cc3cc(CCl)ccc3oc2=O)cn1"
# output 225 °C (dec.)

# input Please give the documented melting point of "Cc1ccc2oc(=O)c(C(=O)Oc3cccc(Cl)c3)cc2c1"
# output 175 to 176 °C

# input Please give the documented melting point of "O=C(Oc1cc(F)ccc1F)c1cc2ccccc2oc1=O"
# output 134 to 137 °C

# input Please give the documented melting point of "O=C(Oc1cccc(C(F)(F)F)c1)c1cc2cc(CCl)ccc2oc1=O"
# output 162 to 163 °C

# input Please give the documented melting point of "O=C(Nc1cccnc1)c1cc2cc(CCl)ccc2oc1=O"
# output 270 °C (dec.)

# input Please give the documented melting point of "Cc1ccc2oc(=O)c(C(=O)Oc3cc(F)ccc3F)cc2c1"
# output 155 to 159 °C

# input Please give the documented melting point of "CC(=O)OCc1ccc2oc(=O)c(C(=O)Oc3cncc(Cl)c3)cc2c1"
# output 153 to 155 °C

# input Please give the documented melting point of "O=C(Oc1cc2ccccc2cn1)c1cc2ccccc2oc1=O"
# output 160 to 163 °C

# input Please give the documented melting point of "CC(C)C(=O)OCc1ccc2oc(=O)c(C(=O)Oc3cncc(Cl)c3)cc2c1"
# output 162 to 164 °C

# input Please give the documented melting point of "O=C(NSc1ncccc1[N+](=O)[O-])c1cc2cc(CCl)ccc2oc1=O"
# output 252 to 254 °C

# input Please give the documented melting point of "Cc1cccc(OC(=O)c2cc3cc(CCl)ccc3oc2=O)n1"
# output 160 to 162 °C

# input Please give the documented melting point of "CCCC(=O)OCc1ccc2oc(=O)c(C(=O)Oc3cncc(Cl)c3)cc2c1"
# output 146 to 148 °C

# input Please give the documented melting point of "O=C(Oc1cc(F)ccc1Br)c1cc2ccccc2oc1=O"
# output 173 to 175 °C

# input Please give the documented melting point of "Cl.NCc1ccc2oc(=O)c(C(=O)Oc3cncc(Cl)c3)cc2c1"
# output 230 °C (dec.)

# input Please give the documented melting point of "O=C(Oc1cccc2cnccc12)c1cc2ccccc2oc1=O"
# output 190 to 193 °C

# input Please give the documented melting point of "O=C(Oc1ccc(Cl)cn1)c1cc2cc(CCl)ccc2oc1=O"
# output 171 to 172 °C

# input Please give the documented melting point of "O=C(Oc1cccnc1Br)c1cc2cc(CCl)ccc2oc1=O"
# output 197 to 199 °C

# input Please give the documented melting point of "CCC(=O)OCc1ccc2oc(=O)c(C(=O)Oc3ccccc3)cc2c1"
# output 186 to 187 °C

# input Please give the documented melting point of "O=C(Oc1cc(F)ccc1[N+](=O)[O-])c1cc2ccccc2oc1=O"
# output 219 to 223 °C

# input Please give the documented melting point of "O=C(Oc1cccc(Cl)n1)c1cc2cc(CCl)ccc2oc1=O"
# output 172 to 173 °C

# input Please give the documented melting point of "Cc1ccc2oc(=O)c(C(=O)Oc3cccc4cnccc34)cc2c1"
# output 188 to 190 °C

# input Please give the documented melting point of "Cc1ccc2oc(=O)c(C(=O)Oc3cc([N+](=O)[O-])ccc3[N+](=O)[O-])cc2c1"
# output 225 to 229 °C

# input Please give the documented melting point of "O=C(OC1CCCCCC1)c1cc2cc(CCl)ccc2oc1=O"
# output 171 to 174 °C

# input Please give the documented melting point of "Cc1ccnc(OC(=O)c2cc3cc(CCl)ccc3oc2=O)c1"
# output 152 to 154 °C

# input Please give the documented melting point of "CC(=O)OCc1ccc2oc(=O)c(C(=O)Oc3cc(F)ccc3Br)cc2c1"
# output 148 to 150 °C
